Molecular target: Rat NPY5 receptor (Rattus norvegicus)
Sequence (Q63634 whole entry): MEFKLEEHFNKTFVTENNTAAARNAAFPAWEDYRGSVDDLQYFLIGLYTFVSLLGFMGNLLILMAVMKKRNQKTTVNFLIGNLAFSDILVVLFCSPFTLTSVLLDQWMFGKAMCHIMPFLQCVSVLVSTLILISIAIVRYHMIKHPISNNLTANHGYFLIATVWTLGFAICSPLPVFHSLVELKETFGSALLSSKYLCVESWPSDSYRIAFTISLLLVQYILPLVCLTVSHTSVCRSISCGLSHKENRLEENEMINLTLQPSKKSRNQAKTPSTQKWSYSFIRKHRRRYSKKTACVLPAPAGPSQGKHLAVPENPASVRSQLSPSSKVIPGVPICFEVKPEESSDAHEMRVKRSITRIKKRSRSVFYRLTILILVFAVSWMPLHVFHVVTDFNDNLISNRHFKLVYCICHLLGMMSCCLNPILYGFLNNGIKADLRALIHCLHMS
Assay: Rat NPY5 receptor binding assay ([125I]PYY, membrane protein)
Details: rNPY5 IC50, [125I]PYY binding
PROPERTY_MEASURED: IC50 (µM)

>  <SMILES_NOTATION>
O=C(CN1CCC(O)(c2ccccc2)CC1)Nc1ccc(C2CCCCC2)cc1

>  <PROPERTY_MEASURED>
IC50

>  <READING_UNIT>
µM

>  <OBS_VALUE>
0.037

$$$$

---

Target: Human NPY5 receptor (Homo sapiens, UniProt Q15761)
Sequence (Q15761 whole entry): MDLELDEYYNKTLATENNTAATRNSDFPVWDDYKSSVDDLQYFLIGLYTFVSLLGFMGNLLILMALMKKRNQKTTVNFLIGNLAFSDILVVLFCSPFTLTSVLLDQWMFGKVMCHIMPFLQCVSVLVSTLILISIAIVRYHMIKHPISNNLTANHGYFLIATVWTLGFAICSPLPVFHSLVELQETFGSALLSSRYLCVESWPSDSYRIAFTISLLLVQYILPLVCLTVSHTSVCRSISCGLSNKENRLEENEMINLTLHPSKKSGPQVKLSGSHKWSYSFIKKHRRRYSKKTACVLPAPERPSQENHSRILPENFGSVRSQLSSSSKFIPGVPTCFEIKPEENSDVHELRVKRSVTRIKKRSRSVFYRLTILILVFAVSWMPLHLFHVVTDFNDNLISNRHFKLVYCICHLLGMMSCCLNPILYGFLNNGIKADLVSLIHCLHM
Assay: Human NPY5 receptor binding assay ([125I]PYY, membrane protein)
Conditions: [125I]PYY binding, read-out: hNPY5 IC50
pIC50: −log10 of the molar value.

>  <COMPOUND>
O=C(CN1CCC[C@H]1C(=O)O)Nc1ccc(C2CCCCC2)cc1

>  <RESULT_COMPARATOR>
=

>  <pIC50>
5.08

$$$$
>  <COMPOUND>
NC(=O)C1CCCN1CC(=O)Nc1ccc(C(=O)c2ccccc2)cc1 (stereo not shown)

>  <RESULT_COMPARATOR>
=

>  <pIC50>
6.04

$$$$
>  <COMPOUND>
COc1ccccc1CNCC(=O)Nc1ccc(C(=O)c2ccccc2)cc1

>  <RESULT_COMPARATOR>
<

>  <pIC50>
5.30

$$$$
>  <COMPOUND>
O=C(CNCc1ccco1)Nc1ccc(C2CCCCC2)cc1

>  <RESULT_COMPARATOR>
=

>  <pIC50>
6.18

$$$$

---

Measured melting point of individual entries
PROPERTY_MEASURED: melting point

>  <COMPOUND>
O=C(CN1CCC2(CC1)C(=O)NCN2c1ccccc1)Nc1ccc(C2CCCCC2)cc1

>  <OBS_VALUE>
117 to 118 °C

$$$$
>  <COMPOUND>
CCCCCc1ccc(NC(=O)CN2CCC(n3c(=O)[nH]c4ccccc43)CC2)cc1

>  <OBS_VALUE>
127 to 128 °C

$$$$
>  <COMPOUND>
CC(C)OCCCNC(=O)CN1CCC(n2c(=O)[nH]c3ccccc32)CC1.Cl

>  <OBS_VALUE>
237 to 238 °C

$$$$
>  <COMPOUND>
Cl.O=C(CN1CCC(n2c(=O)[nH]c3ccccc32)CC1)Nc1ccc(C(=O)c2ccccc2)cc1

>  <OBS_VALUE>
215 to 216 °C

$$$$
>  <COMPOUND>
CC(C)N(CCNC(=O)CN1CCC(n2c(=O)[nH]c3ccccc32)CC1)C(C)C

>  <OBS_VALUE>
195 to 196 °C

$$$$
>  <COMPOUND>
CN(C(=O)CN1CCC(n2c(=O)[nH]c3ccccc32)CC1)c1ccc(C2CCCCC2)cc1

>  <OBS_VALUE>
250 to 253 °C

$$$$
>  <COMPOUND>
CC(C(=O)Nc1ccc(C(C)(C)C)cc1)N1CCC(n2c(=O)[nH]c3ccccc32)CC1 (stereo not shown)

>  <OBS_VALUE>
144 to 148 °C

$$$$
>  <COMPOUND>
CCOC(=O)Cc1ccc(NC(=O)CN2CCC(n3c(=O)[nH]c4ccccc43)CC2)cc1

>  <OBS_VALUE>
164 to 165 °C

$$$$
>  <COMPOUND>
O=C(CN1CCN(c2ccccc2)CC1)Nc1ccc(C2CCCCC2)cc1

>  <OBS_VALUE>
195 to 196 °C

$$$$
>  <COMPOUND>
O=C(CN1CCCCC1)Nc1ccc(-c2ccccc2)cc1

>  <OBS_VALUE>
102 to 103 °C

$$$$
>  <COMPOUND>
O.O=C(CN1CCC(n2c(=O)[nH]c3ccccc32)CC1)Nc1ccc(-c2cnco2)cc1 (hydrate or solvate)

>  <OBS_VALUE>
177 to 178 °C

$$$$
>  <COMPOUND>
COCCNC(=O)CN1CCC(n2c(=O)[nH]c3ccccc32)CC1

>  <OBS_VALUE>
77 to 78 °C

$$$$
>  <COMPOUND>
Cl.O=C(CN1CCC(n2c(=O)[nH]c3ccccc32)CC1)NCCc1ccccc1

>  <OBS_VALUE>
181 to 182 °C

$$$$
>  <COMPOUND>
CC(=O)NC1CCN(CC(=O)Nc2ccc(C3CCCCC3)cc2)C1 (stereo not shown)

>  <OBS_VALUE>
105 to 110 °C

$$$$
>  <COMPOUND>
O=C(CN1CCCCC1)Nc1ccc(C2CCCCC2)cc1

>  <OBS_VALUE>
118 to 119 °C

$$$$
>  <COMPOUND>
CC(C)OC(=O)c1ccc(NC(=O)CN2CCC(n3c(=O)[nH]c4ccccc43)CC2)cc1

>  <OBS_VALUE>
168 to 177 °C

$$$$
>  <COMPOUND>
O=C(CN1CCC(n2c(=O)[nH]c3ccccc32)CC1)NC1CCCC1.O=C(O)C(=O)O

>  <OBS_VALUE>
217 to 218 °C

$$$$
>  <COMPOUND>
CC(C)c1ccc(NC(=O)CN2CCC(n3c(=O)[nH]c4ccccc43)CC2)cc1

>  <OBS_VALUE>
133 to 134 °C

$$$$
>  <COMPOUND>
O=C(CN1CCC(n2c(=O)[nH]c3ccccc32)CC1)Nc1ccc(C2CCCCC2)cc1

>  <OBS_VALUE>
130 to 132 °C

$$$$

---

Molecular target: Human NPY5 receptor (Homo sapiens, UniProt Q15761)
Assay: Human NPY5 receptor binding assay ([125I]PYY, membrane protein)
Conditions: [125I]PYY binding, read-out: hNPY5 IC50
Form field: IC50 (one value per entry).
PROPERTY_MEASURED: IC50 (µM)

>  <COMPOUND>
O=C1C=C(NCC(=O)Nc2ccc(C3CCCCC3)cc2)CCC1

>  <PROPERTY_MEASURED>
IC50

>  <RESULT_COMPARATOR>
>

>  <OBS_VALUE>
10

$$$$
>  <COMPOUND>
O=C(CN1[C@@H](C(=O)O)CC[C@@H]1O)Nc1ccc(C(=O)c2ccccc2)cc1

>  <PROPERTY_MEASURED>
IC50

>  <RESULT_COMPARATOR>
=

>  <OBS_VALUE>
7.6

$$$$
>  <COMPOUND>
O=C(CN1C[C@H](O)C[C@H]1C(=O)O)Nc1ccc(C2CCCCC2)cc1 [Compound 12]

>  <PROPERTY_MEASURED>
IC50

>  <RESULT_COMPARATOR>
=

>  <OBS_VALUE>
8.9

$$$$
>  <COMPOUND>
O=C(CN(CCO)c1ccccc1)Nc1ccc(C(=O)c2ccccc2)cc1

>  <PROPERTY_MEASURED>
IC50

>  <RESULT_COMPARATOR>
=

>  <OBS_VALUE>
1.2

$$$$
>  <COMPOUND>
O=C(CN1CCC(C(=O)N2CCCCC2)(c2ccccc2)CC1)Nc1ccc(C(=O)c2ccccc2)cc1

>  <PROPERTY_MEASURED>
IC50

>  <RESULT_COMPARATOR>
>

>  <OBS_VALUE>
5

$$$$
>  <COMPOUND>
CC(=CC#N)NCC(=O)Nc1ccc(C2CCCCC2)cc1

>  <PROPERTY_MEASURED>
IC50

>  <RESULT_COMPARATOR>
=

>  <OBS_VALUE>
4.4

$$$$
>  <COMPOUND>
O=C(CN1CC=C(c2ccc(Cl)cc2)CC1)Nc1ccc(C(=O)c2ccccc2)cc1

>  <PROPERTY_MEASURED>
IC50

>  <RESULT_COMPARATOR>
=

>  <OBS_VALUE>
5.2

$$$$
>  <COMPOUND>
O=C(CNc1c(I)cc(C(=O)O)cc1I)Nc1ccc(C(=O)c2ccccc2)cc1

>  <PROPERTY_MEASURED>
IC50

>  <RESULT_COMPARATOR>
=

>  <OBS_VALUE>
0.53

$$$$

---

Target: Human NPY5 receptor (Homo sapiens)
Assay: Human NPY5 receptor binding assay ([125I]PYY, membrane protein)
Details: [125I]PYY binding, read-out: hNPY5 IC50

>  <SMILES_NOTATION>
CC1CCN(CC(=O)Nc2ccc(C3CCCCC3)cc2)CC1

>  <TARGET_OF_ASSAY>
Human NPY5 receptor (Homo sapiens)

>  <IC50>
> 10 µM

$$$$
>  <SMILES_NOTATION>
O=C(CNCc1ccc2c(c1)OCO2)Nc1ccc(C(=O)c2ccccc2)cc1

>  <TARGET_OF_ASSAY>
Human NPY5 receptor (Homo sapiens)

>  <IC50>
> 5 µM

$$$$
>  <SMILES_NOTATION>
O=C(CNCCN1CCNCC1)Nc1ccc(C(=O)c2ccccc2)cc1

>  <TARGET_OF_ASSAY>
Human NPY5 receptor (Homo sapiens)

>  <IC50>
> 5 µM

$$$$
>  <SMILES_NOTATION>
Cn1cccc1CCNCC(=O)Nc1ccc(C(=O)c2ccccc2)cc1

>  <TARGET_OF_ASSAY>
Human NPY5 receptor (Homo sapiens)

>  <IC50>
> 5 µM

$$$$
